- ASSAY_OVERVIEW: Plasma mivebresib pharmacokinetics
- Format: in vivo, human
- CONDITION_DETAILS: human, plasma, oral
READOUT_TYPE: half-life
Write the numeric value and append its unit.

Lab note: CCS(=O)(=O)Nc1ccc(Oc2ccc(F)cc2F)c(-c2cn(C)c(=O)c3[nH]ccc23)c1 gave half-life of 16.4 h
